- testedTarget: UniProt:Q9NYA1
- Sequence (Q9NYA1 whole entry, the tested form may be a part): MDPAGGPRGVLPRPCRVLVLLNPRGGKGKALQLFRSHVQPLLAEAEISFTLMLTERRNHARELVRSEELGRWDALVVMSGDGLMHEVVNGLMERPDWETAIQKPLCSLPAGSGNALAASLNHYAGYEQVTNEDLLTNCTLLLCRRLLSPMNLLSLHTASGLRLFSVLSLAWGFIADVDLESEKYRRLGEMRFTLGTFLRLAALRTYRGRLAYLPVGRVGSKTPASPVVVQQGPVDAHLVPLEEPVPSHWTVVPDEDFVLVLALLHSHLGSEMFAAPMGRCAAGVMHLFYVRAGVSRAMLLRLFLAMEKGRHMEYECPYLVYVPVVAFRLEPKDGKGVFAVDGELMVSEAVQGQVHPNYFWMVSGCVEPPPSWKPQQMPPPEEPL
- assayDetails: Effect on EGFP-fused human SPHK1 activity expressed in CHO cells at 10 uM relative to basal level
- Assay type: cell-based
measuredParameter: Activity (%)

Consider the reported Activity for these molecules:
{"smi": "CCCCCCCCCCCCCC#C[C@@H](O)[C@@H](N)CO", "Activity [%]": 75.6}
{"smi": "CCCCC#CC(=O)[C@H](CO)NC(=O)OC(C)(C)C", "Activity [%]": 106}

A. CCCCCCCCC#CC(=O)[C@@H]1COC(C)(C)N1C(=O)OC(C)(C)C
B. CCCCCCCCCCCCCC#CC(=O)[C@@H]1COC(C)(C)N1C(=O)OC(C)(C)C
Hi there! Just curious which has the higher Activity between A and B . Write down the label of the entry you select. A
(A: 84.8%, B: 45.3%)

Origin of measurements: ChEMBL document CHEMBL1136987
